The reported measurements were obtained from patent US11807835B2.

Give measured Relative Lipase Enzyme Activity for each item. Keep answers brief.
System: lipase
EXPERIMENTAL_DETAILS: Lipase activity retention in detergent use solution (4000 ppm, 5 GPG water; p-nitrophenyl valerate, TRIS buffer pH 8.0)
Type: biochemical
STUDY_CONDITIONS: base formula, phosphonate at 0.1% elemental phosphorus, at 120º F. or at room temperature (as titled), time 0 min
One number for each entry, in %.

Illustrative cases are given below, each with its answer.
{"COMPOUND": "O=C(O)CCC(CC(=O)O)(C(=O)O)P(=O)(O)O (stereo not shown)", "Relative Lipase Enzyme Activity, %": 100.00}
{"COMPOUND": "O=P(O)(O)CN(CP(=O)(O)O)CP(=O)(O)O", "Relative Lipase Enzyme Activity, %": 100.00}
{"COMPOUND": "CC(O)(P(=O)(O)O)P(=O)(O)O", "Relative Lipase Enzyme Activity, %": 100.00}

# Relative Lipase Enzyme Activity (compound: NCP(=O)(O)O ) is 100.00
